# reported CC50 at 72 h; entries follow
assay: Cytotoxicity against human hepatoma cells after 3 days by MTS assay; type: cell-based

Example entries begin here.
Report CC50 at 72 h, nothing else, for this compound: COCC(O)(COC)[C@H]1C[C@@H](Nc2nc(NCC3CC3)nc(C)c2-c2nc3c(C)nccc3s2)[C@H](O)[C@@H]1O > 6 µM

Please report CC50 at 72 h for the following compound: COC[C@@H](C)Nc1nc(C)c(-c2nc3c(C)nccc3s2)c(N[C@@H]2C[C@H](C(C)(C)O)[C@@H](O)[C@H]2O)n1 > 3 µM

Continuing:
Output CC50 at 72 h of COCCNc1nc(C)c(-c2nc3c(C)nccc3s2)c(N[C@@H]2C[C@H](C3(O)CC3)[C@@H](O)[C@H]2O)n1 13 µM
